- Measured on: Hypoxanthine-guanine-xanthine phosphoribosyltransferase (Plasmodium falciparum (isolate FCR-3 / Gambia))
- Sequence (P20035 whole entry): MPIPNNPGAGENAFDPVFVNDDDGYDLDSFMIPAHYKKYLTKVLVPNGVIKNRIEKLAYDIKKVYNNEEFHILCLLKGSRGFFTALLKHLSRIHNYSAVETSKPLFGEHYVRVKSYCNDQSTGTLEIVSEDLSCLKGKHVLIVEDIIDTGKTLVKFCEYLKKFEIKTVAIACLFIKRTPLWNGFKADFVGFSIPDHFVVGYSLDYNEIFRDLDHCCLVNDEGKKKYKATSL
- Protocol details: Inhbition Assay
- Assay setup: pH 7.6; 37 °C
Measured attribute: Ki (nM)

[P] O=c1[nH]cnc2c(NCCCP(=O)(O)O)c[nH]c12 [HGXPRT Inhibitor, 2]
[Q] O=c1[nH]cnc2c(N[C@H](CO)CCP(=O)(O)O)c[nH]c12 [HGXPRT Inhibitor, 3]
Please choose the item with the lower Ki value from this pair: P and Q // return label of chosen record
Q

Values compiled from BindingDB's records for doi:10.1016/j.chembiol.2012.04.012.
